assay: inhibition of NOD2-driven NF-kB reporter – cell-based, luminescence, uHTS, HEK293 (AID 1566); details: HEK293 NOD2/NF-kB luciferase reporter, at 4 µM
In all, about 290,000 compounds went through this assay and about 1,800 (0.62%) were called active. Rule as the data show it: active = inhibition above about 50%; inactive = the rest. Shown is part of a subset that was picked to be rich in actives.
Output constraint: value belongs to active, inactive

## Input Hi, do you know how COc1ccc(S(=O)(=O)N(C)C(C)CCc2ccco2)cc1 (stereo not drawn) came out in this test?
## Output inactive

## Input Could you kindly confirm the outcome this assay logged for `COc1ccc(NS(=O)(=O)c2ccc3c(c2)OCCO3)cc1OC` ?
## Output active

## Input Recorded test outcome, item `COc1cccc(/C=N/NC(=O)C[n+]2ccccc2)c1O`
## Output inactive

## Input Entry `CCN(CC(=O)Nc1ccc(N2CCOCC2)cc1)C(=O)c1ccc(C#N)cc1` : call = ?
## Output inactive

## Input Query: recorded result category for `COc1ccccc1C(=O)Nc1ccc(C(=O)Nc2ccccc2C(=O)O)cc1` in this test
## Output active

## Input GET /call?item= `CCCCc1c(C)c(C#N)c2nc3ccccc3n2c1NCCN(C)C` returns the recorded outcome of this test.
## Output inactive

## Input Which result was noted for this compound in the test: `Cc1ccccc1OCC(=O)Nc1ccc(C(=O)Nc2ccccc2C(=O)O)cc1`
## Output inactive

## Input Look up the recorded call for CCc1ccc(NC(=O)CC2C(=O)N(c3ccc(C)cc3)C(=O)N2C2CC2)cc1 (stereo not drawn) in this test.
## Output inactive

## Input Lab log entry: `CCCn1c(SCC(=O)NC2CCCCC2)nnc1-c1ccccn1` — outcome as called in the assay?
## Output inactive

## Input Assay outcome for CC(CCc1ccco1)N(C)S(=O)(=O)c1csc(C(N)=O)c1 (stereo not drawn) : what was it?
## Output inactive

## Input Please state the recorded outcome for this compound: `Cc1cccc(Oc2ccc(N)cc2)c1`
## Output inactive

## Input Given `C=CCc1cccc(/C=N/NC(=O)C[n+]2ccccc2)c1O` , state the outcome it received in this test.
## Output active

## Input Hi, sorry to bother you, what did the test record for `Cc1cc(C(=O)Nc2ccccc2C(=O)O)ccc1NC(=O)COc1cccc(C)c1C` ?
## Output inactive

## Input Could you please tell me the result logged for `COc1ccccc1C(=O)Nc1ccc(C(=O)c2ccccc2)cc1` in this assay?
## Output inactive

## Input What was the test verdict on `COc1ccc(S(=O)(=O)Nc2ccc3c(c2)OCCO3)cc1OC` ?
## Output inactive

## Input Short answer needed: outcome of this test for CCOC(=O)C1CCCN(S(=O)(=O)c2ccc(OC)c3ccccc23)C1 (stereo not drawn) ?
## Output inactive

## Input How did this test come out for CN(C)c1ccc(C2N(C(=O)N3CCOCC3)CCN2S(=O)(=O)c2ccccc2)cc1 (stereo not drawn) ?
## Output inactive

## Input Answer briefly: the call reported for `COc1ccccc1C(=O)Nc1ccc(C(=O)O)cc1` in this assay.
## Output inactive

====

test: inhibition of NOD2-driven NF-kB reporter – cell-based, luminescence, uHTS, HEK293 (AID 1566); settings: HEK293 NOD2/NF-kB luciferase reporter, at 4 µM, active compounds read high
The whole screen tested about 290,000 compounds, of which about 1,800 (0.62%) were called active. Many of the other results were omitted from the sample, so actives are more common in it than they were.
Record form. Attribute: inhibition. Fill in for each entry.
Please respond with the number in % and leave the unit unwritten.

## Input # input molecule: `COc1ccccc1NS(=O)(=O)c1cccc(C(=O)NN=C2CCCC2)c1` ; wanted: its inhibition
## Output 4.3

## Input Query (molecule): `CCCCN(Cc1ccco1)C(=O)c1cc2c(=O)[nH]c3ccc(C)cc3c2s1` ; field requested: inhibition
## Output 34.9

## Input What value of inhibition has been reported for the following molecule? `O=C(OCCCN1CCOCC1)c1ccc(O)c(O)c1`
## Output 11.1

## Input Fill blank: measured inhibition of the molecule `O=C(CCS(=O)(=O)c1ccccc1)N1CCN(c2cccc(C(F)(F)F)c2)CC1` is ____.
## Output 11.5

## Input # input molecule: `Cn1nc(C(=O)N2CCC(C(N)=O)CC2)c2c1-c1ccccc1SC2` ; wanted: its inhibition
## Output 12.9

## Input Quick one: inhibition for `NC(=O)c1cnn(-c2cc(Oc3ccccc3)ncn2)c1N` ?
## Output -54.7

## Input Could you share which inhibition value was measured for `COc1ccccc1/C=N/NC(=O)c1sc(C)nc1C` ?
## Output 6.4

## Input Item `C=CCN(c1ccc(C(=O)Nc2ccc(NC(C)=O)cc2)cc1)S(C)(=O)=O` has what recorded inhibition?
## Output 15.2

## Input // lookup inhibition for `O=C(CSc1nc2ccccc2c(=O)[nH]1)Nc1cccc([N+](=O)[O-])c1`
## Output 19.4

## Input What does the record list as inhibition for N#CC(c1nc2ccccc2nc1N1CCCC1)S(=O)(=O)c1ccccc1 (stereo not drawn) ?
## Output -3.3

## Input I would be grateful if you could share the reported inhibition for `CCOc1ccccc1C(=O)OCC(=O)NCCNC(=O)COC(=O)c1ccccc1OCC` .
## Output -4.3

## Input Query (molecule): `O=[N+]([O-])c1ccc(N2CCN(c3ccc(Cl)nn3)CC2)c(Cl)c1` ; field requested: inhibition
## Output -52.2

## Input Report inhibition for `CCc1sc(NC(C)=O)nc1-c1ccccc1` please.
## Output -49.5

====

experiment: inhibition of NOD2-driven NF-kB reporter – cell-based, luminescence, uHTS, HEK293 (AID 1566); details: HEK293 NOD2/NF-kB luciferase reporter, at 4 µM, active compounds read high
The whole screen tested about 290,000 compounds, of which about 1,800 (0.62%) were called active. The sample as a whole holds a higher share of actives than the screen did.
For each of the molecules below, state its inhibition.
Entry rule: numbers only, all in %.

## Input Bench note: what inhibition did O=C(CCl)N(c1ccccc1)C1CCS(=O)(=O)C1 (stereo unspecified) show?
## Output 1.5

## Input Suppose we examine the molecule `COc1cc(SC)ccc1C(=O)Nc1nccs1` ; what inhibition value has been reported?
## Output -159

## Input Look at this molecule and give its reported inhibition. `O=C(CCl)N(c1ccccc1)C1CCCCC1`
## Output 52.5

## Input Which inhibition is listed for `Cc1cccc(NC(=O)CCSc2ccccc2)c1C` ?
## Output -32.5

## Input I have this molecule here, `COc1cc(CC(=O)NCC2CCCCC2)cc(OC)c1OC` , and I need its recorded inhibition.
## Output -1.9

## Input May I ask what inhibition has been recorded for `Cc1ccccc1N=C1NC(=O)/C(=C/c2cccn2-c2cccc(C(=O)O)c2)S1` ?
## Output 10.7

## Input Entry `Cc1ccc(C)c(-n2c(-c3ccc4c(c3)OCO4)n[nH]c2=S)c1` has what inhibition?
## Output 13.9

## Input Fill in the blank: the reported inhibition of `COc1ccc(NC(=O)CSc2ccc(-c3sc(C)nc3C)nn2)cc1OC` is ____.
## Output 5.8

## Input Name the reported inhibition value associated with the molecule `COc1cc(SC)ccc1C(=O)Nc1nc(C)cs1`
## Output 72.2

## Input Which inhibition value belongs to COc1ccc(N(CC(=O)Nc2ccc(C)c(C)c2)C2=NC3CS(=O)(=O)CC3S2)cc1 (stereo unspecified) ?
## Output 10.8

## Input Entry `CCc1ccc(NC(=S)N(Cc2cccnc2)Cc2ccco2)cc1` has what inhibition?
## Output 6.5

## Input Sample `Cc1cccc(N2CCN(C(=O)C3CCCCC3)CC2)c1C` — what was its inhibition?
## Output -34.8

## Input So what does the record say about inhibition for CC1C(=O)N(Cc2ccccc2)c2ccccc2N1C(=O)c1ccccc1 (stereo unspecified) ?
## Output 13.9

## Input What value of inhibition has been recorded for this entry: `COc1ccc(F)cc1CN1CCN(c2ncnc3scc(-c4ccccc4)c23)CC1`
## Output 19.8

## Input So what does the record say about inhibition for `COc1cccc(C(=O)NNC(=O)C(=O)Nc2ccc(C)c(Cl)c2)c1` ?
## Output 78.2

## Input What does the data say about its inhibition? Entry: Cc1c(/C(O)=C2/C(=O)C(=O)N(CCN(C)C)C2c2ccc(C(C)C)cc2)cnn1-c1ccccc1 (stereo unspecified)
## Output 28.4

====

assay: inhibition of NOD2-driven NF-kB reporter – cell-based, luminescence, uHTS, HEK293 (AID 1566); conditions: HEK293 NOD2/NF-kB luciferase reporter, at 4 µM, active compounds read high
The whole screen tested about 290,000 compounds, of which about 1,800 (0.62%) were called active. The sample holds actives, similar compounds and a random draw of the others, so the mix is not that of the screen.
VALUE TYPE: inhibition (%)
State just the number; it will be interpreted in %.

## Input What measured inhibition goes with O=C(COc1ccc(S(=O)(=O)NCc2ccccc2)cc1)NCC1CCCO1 (centres undefined) ?
## Output -3

## Input Using the record for `O=C(CN1C(=O)c2ccccc2S1(=O)=O)c1ccccc1` , report its inhibition.
## Output 52.5

## Input Quick one: inhibition of `Cc1cc(NC(=O)CN(C)S(=O)(=O)c2cccc(Cl)c2)no1` ?
## Output 0.9

## Input Any idea what inhibition was measured for `Cc1ccc2c(C)c(C(=O)Nc3c(C)n(C)n(-c4ccccc4)c3=O)oc2c1C` ?
## Output 22.4

## Input What inhibition value was documented for this compound, `COc1ccc2c(c1)cc(C(=O)N[C@H](C(=O)N1CCC(C(=O)O)CC1)C(C)C)n2C` ?
## Output -3.6

## Input Item `O=C(CN1C(=O)c2ccccc2S1(=O)=O)c1ccc(O)c(O)c1` has what recorded inhibition?
## Output 42.4

## Input Give the measured inhibition of `Cc1ccc(S(=O)(=O)N2CCN(CC(=O)Nc3ccc([N+](=O)[O-])cc3)CC2)cc1C` .
## Output -86.3

## Input Bench note: what inhibition did COc1ccc(C2C(C(=O)c3ccco3)=C(O)C(=O)N2CCCn2ccnc2)c(OC)c1 (centres undefined) show?
## Output -6.9

## Input Any idea what its inhibition is? The compound is `Cc1csc(NC(=O)c2c(O)c3c(n(CC(C)C)c2=O)CCCC3)n1`
## Output 23.7

## Input Reported inhibition, compound `COc1ccc(-c2nsc3c(N4CCCCC4)ncnc23)cc1` : ____
## Output -13.3

## Input Query (compound): O=C(O)CC1NC(=O)N(c2ccc(Cl)cc2)C1=O (centres undefined) ; field requested: inhibition
## Output 5.4

## Input If you can, please state the reported inhibition value of `CCCN(CCC)S(=O)(=O)c1ccc(C(=O)NNc2nc(-c3ccccc3)c3cc(Br)ccc3n2)cc1` .
## Output -5

## Input Return reported inhibition; argument: `COc1ccc(S(=O)(=O)N/N=C\c2ccc3c(c2)OCO3)cc1`
## Output 29.5

## Input # inhibition lookup, item Cc1nnc(SCC(=O)Nc2ccc([N+](=O)[O-])cc2)n1CC1CCCO1 (centres undefined)
## Output 2.5
